tested on: HLA-DQ2; test: Inhibition of IL-2 secretion by TCR transductants stimulated by α-gliadin peptides presented by HLA-DQ2 expressing K562 cells (ELISA); assay type: cell-based, human; conditions: IL-2 secretion, TCR transductants (α I- or α II-gliadin) + gliadin peptide + HLA-DQ2 K562 cells; at the concentration given in brackets
assay-readout: DQ2 IL2 Maximal % Inhibition

Field: example entries. Status: answers known.
>  <compound>
CCCCc1ccc(C(=O)NC2CCc3n[nH]c(=O)cc3C2)cc1 (stereo not shown)

>  <observed>
D (D=0-10%)

$$$$
>  <compound>
CCCC(=O)NC1CCc2nn(C)c(=O)cc2C1 (stereo not shown)

>  <observed>
C (C=11-40%)

$$$$
>  <compound>
Cn1nc2c(cc1=O)CC(NC(=O)c1ccc(F)cc1)CC2 (stereo not shown)

>  <observed>
C (C=11-40%)

$$$$
>  <compound>
CC(C)(C)C(=O)NC1CCc2n[nH]c(=O)cc2C1 (stereo not shown)

>  <observed>
D (D=0-10%)

$$$$
>  <compound>
CCC(=O)NC1CCc2n[nH]c(=O)cc2C1 (stereo not shown)

>  <observed>
D (D=0-10%)

$$$$

Now examine the next entry.
Lab note: compound CC(C)(C)c1ccc(C(=O)NC2CCc3n[nH]c(=O)cc3C2)cc1 (stereo not shown) tested on HLA-DQ2; recorded DQ2 IL2 Maximal % Inhibition was D (D=0-10%)

###

Tested on: HLA-DQ2
Test: Inhibition of IL-2 secretion by TCR transductants stimulated by α-gliadin peptides presented by HLA-DQ2 expressing K562 cells (ELISA)
Format: cell-based, human
Conditions: IL-2 secretion, TCR transductants (α I- or α II-gliadin) + gliadin peptide + HLA-DQ2 K562 cells; at the concentration given in brackets
Description: Three commercially available analogues of the DQ2 binding molecules of the invention were tested for their ability to inhibit stimulation of T cell receptor (TCR) transductants in the presence of HLA-DQ2 expressing cells presenting known α-gliadin epitopes. […]
assay-readout: DQ2 IL2 Maximal % Inhibition

// known answers, use as guide
>  <compound>
CC(=O)NC1CCc2n[nH]c(=O)cc2C1 (centres unmarked)

>  <DQ2 IL2 Maximal % Inhibition>
C (C=11-40%)

$$$$
>  <compound>
CC(C)c1ccc(C(=O)NC2CCc3nn(Cc4ccccc4)c(=O)cc3C2)cc1 (centres unmarked)

>  <DQ2 IL2 Maximal % Inhibition>
A (A=71-100%)

$$$$
>  <compound>
CCn1nc2c(cc1=O)CC(NC(=O)c1ccc(C(C)C)cc1)CC2 (centres unmarked)

>  <DQ2 IL2 Maximal % Inhibition>
B (B=41-70%)

$$$$
>  <compound>
CC(=O)NC1CCc2nn(C)c(=O)cc2C1 (centres unmarked)

>  <DQ2 IL2 Maximal % Inhibition>
C (C=11-40%)

$$$$
>  <compound>
O=C(NC1CCc2n[nH]c(=O)cc2C1)c1ccc(Br)cc1 (centres unmarked)

>  <DQ2 IL2 Maximal % Inhibition>
C (C=11-40%)

$$$$

// each compound listed below needs its DQ2 IL2 Maximal % Inhibition
1. Cc1ccc(C(=O)NC2CCc3nn(C)c(=O)cc3C2)cc1 (centres unmarked)
2. CCc1ccc(C(=O)NC2CCc3nn(CC)c(=O)cc3C2)cc1 (centres unmarked)
3. Cn1nc2c(cc1=O)CC(NC(=O)c1ccc(I)cc1)CC2 (centres unmarked)
4. CC(C)c1ccc(C(=O)NC2CCc3nn(CC4CCC4)c(=O)cc3C2)cc1 (centres unmarked)

["B (B=41-70%)", "B (B=41-70%)", "B (B=41-70%)", "A (A=71-100%)"]

Could you report DQ2 IL2 Maximal % Inhibition for every entry in the following list?
1. O=C(NC1CCc2n[nH]c(=O)cc2C1)C1CCCCC1 (centres unmarked)
2. CNC(=O)Cn1nc2c(cc1=O)CC(NC(=O)c1ccc(C(C)C)cc1)CC2 (centres unmarked)

1. C (C=11-40%)
2. A (A=71-100%)

# map each compound to its DQ2 IL2 Maximal % Inhibition
1. O=C(NC1CCc2n[nH]c(=O)cc2C1)c1ccc(F)cc1 (centres unmarked)
2. CCCn1nc2c(cc1=O)CC(NC(=O)c1ccc(CC)cc1)CC2 (centres unmarked)
3. Cn1nc2c(cc1=O)CC(NC(=O)c1cccc3ccccc13)CC2 (centres unmarked)
4. CCc1ccc(C(=O)NC2CCc3nn(CC(N)=O)c(=O)cc3C2)cc1 (centres unmarked)
5. CCCCn1nc2c(cc1=O)CC(NC(=O)c1ccc(C(C)C)cc1)CC2 (centres unmarked)
6. CC(C)c1ccc(C(=O)NC2CCc3n[nH]c(=O)cc3C2)cc1 (centres unmarked)
7. CC(C)c1ccc(C(=O)NC2CCc3nn(C4CC4)c(=O)cc3C2)cc1 (centres unmarked)

1. C (C=11-40%)
2. B (B=41-70%)
3. C (C=11-40%)
4. A (A=71-100%)
5. B (B=41-70%)
6. A (A=71-100%)
7. A (A=71-100%)

Required: DQ2 IL2 Maximal % Inhibition, one value per compound below.
1. Cn1nc2c(cc1=O)CC(NC(=O)C1CCCCC1)CC2 (centres unmarked)
2. CC(C)c1ccc(C(=O)NC2CCc3nn(C4CCCC4)c(=O)cc3C2)cc1 (centres unmarked)

1. B (B=41-70%)
2. A (A=71-100%)

For every record below, what is its DQ2 IL2 Maximal % Inhibition?
1. CC(C)c1ccc(C(=O)NC2CCc3nn(C4CCOCC4)c(=O)cc3C2)cc1 (centres unmarked)
2. O=C(NC1CCc2n[nH]c(=O)cc2C1)c1ccc(Cl)cc1 (centres unmarked)
3. CC(C)C(=O)NC1CCc2n[nH]c(=O)cc2C1 (centres unmarked)
4. O=C(NC1CCc2n[nH]c(=O)cc2C1)c1ccccc1 (centres unmarked)
5. CC(C)c1ccc(C(=O)NC2CCc3nn(CC(C)(C)O)c(=O)cc3C2)cc1 (centres unmarked)
6. COCCn1nc2c(cc1=O)CC(NC(=O)c1ccc(C(C)C)cc1)CC2 (centres unmarked)

["A (A=71-100%)", "B (B=41-70%)", "C (C=11-40%)", "C (C=11-40%)", "A (A=71-100%)", "B (B=41-70%)"]

Okay, here is my list. What is DQ2 IL2 Maximal % Inhibition for each of these?
1. CC(C)c1ccc(C(=O)NC2CCc3nn(CC(F)(F)F)c(=O)cc3C2)cc1 (centres unmarked)
2. CC(C)c1ccc(C(=O)NC2CCc3nn(C(C)C)c(=O)cc3C2)cc1 (centres unmarked)
3. Cn1nc2c(cc1=O)CC(NC(=O)c1ccc(C(F)(F)F)cc1)CC2 (centres unmarked)
4. Cc1ccc(C(=O)NC2CCc3n[nH]c(=O)cc3C2)cc1 (centres unmarked)
5. Cn1nc2c(cc1=O)CC(NC(=O)C1CC1)CC2 (centres unmarked)
6. CCCCC(=O)NC1CCc2n[nH]c(=O)cc2C1 (centres unmarked)
7. Cn1nc2c(cc1=O)CC(NC(=O)C(C)(C)C)CC2 (centres unmarked)

1: A (A=71-100%); 2: A (A=71-100%); 3: A (A=71-100%); 4: C (C=11-40%); 5: C (C=11-40%); 6: C (C=11-40%); 7: C (C=11-40%)

# batch: return DQ2 IL2 Maximal % Inhibition for each of the 4 compounds below
1. CC(C)c1ccc(C(=O)NC2CCc3nn(C4CCCCC4)c(=O)cc3C2)cc1 (centres unmarked)
2. CC(C)c1ccc(C(=O)NC2CCc3nn(CC4CC4)c(=O)cc3C2)cc1 (centres unmarked)
3. Cn1nc2c(cc1=O)CC(NC(=O)c1ccccc1)CC2 (centres unmarked)
4. CCCn1nc2c(cc1=O)CC(NC(=O)c1ccc(C(C)C)cc1)CC2 (centres unmarked)

["A (A=71-100%)", "A (A=71-100%)", "B (B=41-70%)", "A (A=71-100%)"]

Sourced from patent US11939300B2
